- test_target: murine DLL4 (murine) (UniProt Q9JI71)
- protocol: Biacore (SPR), DVD-Ig and muDLL4
We begin with a simple list: items and their reported kon.
Lab book: enter the figure in M⁻¹ s⁻¹, no units written.

Field: example entries. Status: answers known.
- binder: "h1A11.1-G7-S2-SS-Anti-VEGF DVD-Ig (bispecific antibody, part only; not given: anti-VEGF domains, h1A11.1 VL, constant regions, part only) heavy, part: EVQLVESGGGLVQPGGSLRLSCAASGFTFNHFPMAWVRQAPGKGLEWVATISSSDWTPYYRDSVKGRFTISRDNAKNSLYLQMNSLRAEDTAVYYCARGYYNSPFAYWGQGTLVTVSSASTKGP light, part: TVAAP"
  kon, M⁻¹ s⁻¹: 169000
- binder: "h1A11.1-A10-S3-SS-Anti-VEGF DVD-Ig (bispecific antibody, part only; not given: anti-VEGF domains, h1A11.1 VL, constant regions, part only) heavy, part: EVQLVESGGGLVQPGGSLRLSCAASGFTFRHFPMAWVRQAPGKGLEWVASISSSDGTSNYRDSVKGRFTISRDNAKSSLYLQMNSLRAEDTAVYYCARGYYNSPFAYWGQGTLVTVSSASTKGP light, part: TVAAP"
  kon, M⁻¹ s⁻¹: 171000
- binder: "h1A11.1-B9-S2-SS-Anti-VEGF DVD-Ig (bispecific antibody, part only; not given: anti-VEGF domains, h1A11.1 VL, constant regions, part only) heavy, part: EVQLVESGGGLVQPGGSLRLSCAASGFTFSHFPMAWVRQAPGKGLEWVASISSSDSTTNYRDSVKGRFTISRDNAKNSLYLQMNSLRAEDTAVYYCARGYYNSPFAYWGQGTLVTVSSASTKGP light, part: TVAAP"
  kon, M⁻¹ s⁻¹: 167000
- binder: "h1A11.1-H3-S2-SS-Anti-VEGF DVD-Ig (bispecific antibody, part only; not given: anti-VEGF domains, h1A11.1 VL, constant regions, part only) heavy, part: EVQLVESGGGLVQPGGSLRLSCAASGFTFRNFPMAWVRQAPGKGLEWVASISSSDGTTNYRDSVKGRFTISRDNAKSSLYLQMNSLRAEDTAVYYCARGYYNSPFAYWGQGTLVTVSSASTKGP light, part: TVAAP"
  kon, M⁻¹ s⁻¹: 197000
- binder: "h1A11.1-A04-S3-SS-Anti-VEGF DVD-Ig (bispecific antibody, part only; not given: anti-VEGF domains, h1A11.1 VL, constant regions, part only) heavy, part: EVQLVESGGGLVQPGGSLRLSCAASGFTFRHFPMAWVRQAPGKGLEWVATISSSDGATYYRDSVKGRFTISRDNAKSSLYLQMNSLRAEDTAVYYCARGYYNSPFAYWGQGTLVTVSSASTKGP light, part: TVAAP"
  kon, M⁻¹ s⁻¹: 180000

Note: attention shifts to another entry.
kon lookup needed for h1A11.1-F7-S2-SS-Anti-VEGF DVD-Ig (bispecific antibody, part only; not given: anti-VEGF domains, h1A11.1 VL, constant regions, part only) heavy, part: EVQLVESGGGLVQPGGSLRLSCAASGFTFRHFPMTWVRQAPGKGLEWVASISSSDGTINYRDSVKGRFTISRDNAKNSLYLQMNSLRAEDTAVYYCARGYYNSPFAYWGQGTLVTVSSASTKGP light, part: TVAAP , thanks.
1.34e+06
